molecular target: Histone-lysine N-methyltransferase NSD3 (Homo sapiens); assay: Inhibition of recombinant NSD3 (1021 to 1322 residues) (unknown origin) expressed in Escherichia coli Rossetta (DE3)
Sequence (Q9BZ95 whole entry, the tested form may be a part): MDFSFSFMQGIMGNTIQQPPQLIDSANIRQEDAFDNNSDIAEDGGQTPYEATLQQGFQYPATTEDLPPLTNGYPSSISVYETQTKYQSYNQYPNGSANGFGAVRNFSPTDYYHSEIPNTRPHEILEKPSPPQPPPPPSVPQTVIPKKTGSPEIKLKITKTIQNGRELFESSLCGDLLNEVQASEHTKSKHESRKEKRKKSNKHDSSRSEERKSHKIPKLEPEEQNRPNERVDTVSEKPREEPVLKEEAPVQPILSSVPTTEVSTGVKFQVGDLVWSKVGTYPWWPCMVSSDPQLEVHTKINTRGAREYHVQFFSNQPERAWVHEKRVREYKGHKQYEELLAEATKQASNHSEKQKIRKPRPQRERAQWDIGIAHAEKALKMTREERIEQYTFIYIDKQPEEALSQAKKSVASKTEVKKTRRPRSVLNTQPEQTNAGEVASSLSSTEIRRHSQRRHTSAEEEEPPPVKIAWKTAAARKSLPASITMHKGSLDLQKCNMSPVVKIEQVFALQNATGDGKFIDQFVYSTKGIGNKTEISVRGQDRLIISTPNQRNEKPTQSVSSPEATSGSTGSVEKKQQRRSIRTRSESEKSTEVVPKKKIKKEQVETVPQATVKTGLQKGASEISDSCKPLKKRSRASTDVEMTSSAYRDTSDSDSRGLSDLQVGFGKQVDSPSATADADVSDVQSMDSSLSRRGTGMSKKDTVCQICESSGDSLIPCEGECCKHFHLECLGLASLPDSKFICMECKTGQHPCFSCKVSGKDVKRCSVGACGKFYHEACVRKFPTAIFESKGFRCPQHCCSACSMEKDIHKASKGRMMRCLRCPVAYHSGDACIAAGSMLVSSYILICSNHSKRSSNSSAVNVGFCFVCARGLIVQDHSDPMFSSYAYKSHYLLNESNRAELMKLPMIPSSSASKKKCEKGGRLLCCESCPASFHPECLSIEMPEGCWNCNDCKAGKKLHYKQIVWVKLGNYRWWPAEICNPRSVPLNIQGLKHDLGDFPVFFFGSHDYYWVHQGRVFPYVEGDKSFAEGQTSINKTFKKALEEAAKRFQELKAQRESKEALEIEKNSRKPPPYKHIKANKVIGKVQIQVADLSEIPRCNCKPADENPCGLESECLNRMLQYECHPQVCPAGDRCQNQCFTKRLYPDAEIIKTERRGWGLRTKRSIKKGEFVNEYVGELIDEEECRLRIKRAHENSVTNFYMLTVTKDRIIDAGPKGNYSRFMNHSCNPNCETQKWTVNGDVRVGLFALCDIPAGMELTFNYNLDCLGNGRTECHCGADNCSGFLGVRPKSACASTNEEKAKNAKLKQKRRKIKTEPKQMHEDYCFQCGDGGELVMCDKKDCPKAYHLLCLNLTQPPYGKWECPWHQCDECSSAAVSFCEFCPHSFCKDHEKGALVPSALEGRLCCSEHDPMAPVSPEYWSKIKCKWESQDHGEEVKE
Entries and their IC50 values follow.

# count of solved cases: 2
INSERT INTO measurements (structure_as_smiles, result) VALUES
  ('CC(C)Oc1ccc(OCCn2c(S)nc3c(N)ncnc32)cc1', '13.8 µM'),
  ('Cc1ccc(OCCn2c(S)nc3c(N)ncnc32)cc1', '14.3 µM');

From here, focus on the item given below.
I have this molecule here, "CCOc1ccc(OCCn2c(S)nc3c(N)ncnc32)cc1" , and I need its recorded IC50.
32.2 µM
